System: Fibroblast
Assay: Multiplex assay against human fibroblast
Format: toxicity, cell-based
Conditions: 48 h, 1 µM, compound concentration 1 uM, replicate 1
Reported values of Total Cell Count for individual entries
value_type: Total Cell Count

COCCCN1CCC(NC(=O)c2cc(Cl)c(N)c3c2OCC3)CC1 [PRUCALOPRIDE]: 146
Cn1cc(C(=O)OCC2CCN(CCNS(C)(=O)=O)CC2)c2ccccc21: 197
Cc1ccc(OCC(O)C(C)NC(C)C)c2c1CCC2.Cl (stereo not given): 155
Cc1cc(-c2ccc3c(c2)CC[C@H]3N2CC3(CCN(C(=O)Cc4cn5cc(C)sc5n4)CC3)C2)ncn1: 157
C=CCN1C[C@H](C(=O)N(CCCN(C)C)C(=O)NCC)C[C@@H]2c3cccc4[nH]cc(c34)C[C@H]21: 189
